- protocol_summary: Metabolic stability in human hepatic microsome
- Format: in vitro ADME
- measurement_conditions: microsomes, pH 7.4; human hepatic microsome, NADPH(+); read-out: CL NADPH(+)
Starred links: 1 amine or outer side, 2 acyl side, 3 side chain; linkers in the order of their positions; H or OH if unused. Positions of bridges follow the written chain, without caps; N, C: chain ends. Non-standard residues stand in square brackets, D forms with d. Residues, ends and D or L forms follow the SMILES beside them. *: point of attachment. Phe(4-(CH2)5CO) = O=C([C@H](Cc1ccc(CCCCCC(=O)[*:3])cc1)N[*:1])[*:2]; NMeF = CN[C@@H](Cc1ccccc1)C(=O)O; NMeGABA = CN(CCCC(=O)[*:2])[*:1]; NMeI = CC[C@H](C)[C@H](NC)C(=O)O; Aoc(2) = CCCCCC[C@H](N)C(=O)O; NMeL = CN[C@@H](CC(C)C)C(=O)O; NMeV = CN[C@H](C(=O)O)C(C)C; NMeA = CN[C@@H](C)C(=O)O; Piperidide = C1CCN(*)CC1; β3hA = C[C@H](N)CC(=O)O; Sar = CNCC(=O)O; tBu = CC(C)(C)*
Provide the recorded log10 microsomal CLint at 1 uM for the entries that follow.
Field: value | Transform: log10 | Quantity: microsomal CLint at 1 uM | Unit: µL/min/mg

So, CC(C)C[C@@H]1NC(=O)[C@H](Cc2ccccc2)NC(=O)[C@H](CC(C)C)N(C)C(=O)[C@H](Cc2ccccc2)NC(=O)CCCCCc2ccc(cc2)C[C@@H](C(=O)N2CCCCC2)NC(=O)[C@H](Cc2ccccc2)N(C)C(=O)CNC(=O)[C@H]([C@@H](C)O)NC(=O)[C@H](CC(C)C)NC1=O [DP-842] (F[NMeL]FLLTG[NMeF][Phe(4-(CH2)5CO)]-Piperidide; lactam N-9) ? Its log10 microsomal CLint at 1 uM was 2.13

So, CCCCCC[C@@H]1NC(=O)[C@H](Cc2ccccc2)N(C)C(=O)[C@H](C)N(C)C(=O)C[C@H](C)NC(=O)[C@H](C(C)C)N(C)C(=O)[C@H](COC(C)(C)C)NC(=O)[C@H](C)N(C)C(=O)CN(C)C(=O)[C@H]([C@@H](C)O)NC(=O)[C@H](CC(C)C)N(C)C1=O [DP-822] (cyclo([Aoc(2)][NMeL]T[Sar][NMeA]S(tBu)[NMeV][β3hA][NMeA][NMeF])) ? Its log10 microsomal CLint at 1 uM was 2.71

So, CC(C)C[C@H]1C(=O)N(C)[C@@H](CC(C)C)C(=O)N[C@H](C(=O)N2CCCCC2)CC(=O)N(C)CCCC(=O)N(C)[C@@H](Cc2ccccc2)C(=O)N[C@@H]([C@@H](C)O)C(=O)N(C)CC(=O)N[C@@H](COC(C)(C)C)C(=O)N1C [DP-525] ([NMeGABA][NMeF]T[Sar]S(tBu)[NMeL][NMeL]D-Piperidide; lactam N-8) ? Its log10 microsomal CLint at 1 uM was 1.93

So, CC[C@H](C)[C@H]1C(=O)N[C@H](C(=O)N2CCCCC2)CC(=O)N[C@H](C(C)C)C(=O)N[C@@H](CC(C)C)C(=O)N(C)[C@@H](Cc2ccccc2)C(=O)N[C@@H]([C@@H](C)O)C(=O)N(C)[C@@H](C)C(=O)N[C@@H](C(C)C)C(=O)N[C@@H](Cc2ccccc2)C(=O)N(C)[C@@H](CC(C)C)C(=O)N[C@@H](CC(C)C)C(=O)NCC(=O)N1C [DP-216] ([dV]L[NMeF]T[NMeA]VF[NMeL]LG[NMeI]D-Piperidide; lactam N-12) ? Its log10 microsomal CLint at 1 uM was 1.63

So, CC[C@H](C)[C@H]1C(=O)N(C)[C@@H](CC(C)C)C(=O)N[C@@H](Cc2ccccc2)C(=O)N[C@@H]([C@@H](C)O)C(=O)N[C@@H](CC(C)C)C(=O)N(C)[C@@H](Cc2ccccc2)C(=O)N(C)[C@@H](C(C)C)C(=O)N[C@H](C(=O)N(C)CC(=O)N(C)[C@@H](C)C(=O)N(C)[C@@H](CC(C)C)C(=O)N[C@@H](C)C(=O)N2CCCCC2)CC(=O)N[C@H](C)C(=O)N[C@@H](C)C(=O)N1C [DP-670] ([dA]A[NMeI][NMeL]FTL[NMeF][NMeV]D[Sar][NMeA][NMeL]A-Piperidide; lactam N-10) ? Its log10 microsomal CLint at 1 uM was 1.34
